Source: paper PMC7993387

Experiment: Single-dose pharmacokinetics in BALB/c mice
Format: in vivo
Conditions: BALB/c, mouse, plasma, im, 33.5 mg/kg, BALB/c mice, i.m., combined (GC376 55.5 + GS441524 33.5 mg/kg), plasma
measured_quantity: half-life (h)
Numbers only, in h.

Prompt: Could you share which half-life value was measured for N#C[C@@]1(c2ccc3c(N)ncnn23)O[C@H](CO)[C@@H](O)[C@H]1O ?
Completion: 1.67

###

Assay: Single-dose pharmacokinetics in SD rats
Assay type: in vivo
Conditions: Sprague-Dawley, rat, plasma, im, combined (GC376 55.5 + GS441524 33.5 mg/kg), plasma, read-out: MRT0−t
measured_quantity: MRT last (h)
Numbers only, in h.

Prompt: Find the recorded MRT last belonging to CC(C)CC(NC(=O)OCc1ccccc1)C(=O)NC(CC1CCNC1=O)C(O)S(=O)(=O)O (stereo not shown) and report it.
Completion: 2.97

###

Experiment: Single-dose pharmacokinetics in SD rats
Assay type: in vivo
Conditions: Sprague-Dawley, rat, plasma, im, 33.5 mg/kg
Description: Healthy SPF BALB/c mice (7-8 weeks) and SD rats (4-6 weeks) were used in a single-dose PK study. […] Plasma drug concentration was analyzed using LC-MS/MS. Pharmacokinetic parameters were calculated using WinNonlin software (version 6.4), and a non-atrioventricular model was used for data fitting. The data were analyzed using Microsoft Excel 2016 and GraphPad Prism 7.0.
measured_quantity: Vd/F
Could you write the number and then its unit?

Prompt: Find the recorded Vd/F belonging to N#C[C@@]1(c2ccc3c(N)ncnn23)O[C@H](CO)[C@@H](O)[C@H]1O [GS441524] and report it.
Completion: 2.71 L/kg

###

Assay: Single-dose pharmacokinetics in BALB/c mice
Format: in vivo
Conditions: BALB/c, mouse, plasma, im, BALB/c mice, i.m., combined (GC376 55.5 + GS441524 33.5 mg/kg), plasma
measured_quantity: Cmax

Prompt: Consider the molecule CC(C)CC(NC(=O)OCc1ccccc1)C(=O)NC(CC1CCNC1=O)C(O)S(=O)(=O)O (stereo not shown) and give its measured Cmax.
Completion: 30000 ng/mL

###

Assay: Single-dose pharmacokinetics in BALB/c mice
Format: in vivo
Conditions: BALB/c, mouse, plasma, im, 33.5 mg/kg, BALB/c mice, i.m., combined (GC376 55.5 + GS441524 33.5 mg/kg), plasma
measured_quantity: Cmax (ng/mL)
One number for each entry, in ng/mL.

Prompt: Would you mind telling me what Cmax value was observed for N#C[C@@]1(c2ccc3c(N)ncnn23)O[C@H](CO)[C@@H](O)[C@H]1O [GS441524] ?
Completion: 16000

###

Experiment: Single-dose pharmacokinetics in BALB/c mice
Format: in vivo
Details: BALB/c, mouse, plasma, im, 33.5 mg/kg, BALB/c mice, i.m., combined (GC376 55.5 + GS441524 33.5 mg/kg), plasma
measured_quantity: Tmax (min)
One number for each entry, in min.

Prompt: # input molecule: N#C[C@@]1(c2ccc3c(N)ncnn23)O[C@H](CO)[C@@H](O)[C@H]1O ; wanted: its Tmax
Completion: 33

###

Would you kindly list Vd/F for each of these compounds?
Experiment: Single-dose pharmacokinetics in SD rats
Type: in vivo
Details: Sprague-Dawley, rat, plasma, im, alone (GC376 111 mg/kg; GS441524 67 mg/kg)
Numbers only, in L/kg.

compound | Vd/F [L/kg]
N#C[C@@]1(c2ccc3c(N)ncnn23)O[C@H](CO)[C@@H](O)[C@H]1O | 2.25

Prompt: Look up Vd/F for this compound: CC(C)CC(NC(=O)OCc1ccccc1)C(=O)NC(CC1CCNC1=O)C(O)S(=O)(=O)O (centres unmarked)
Completion: 6.75
